Origin of values: patent US12577217B2

- experimental.target: recombinant human 15-PGDH (Homo sapiens, UniProt P15428)
- Construct: purchased R&D Systems
- Sequence (P15428 1-266): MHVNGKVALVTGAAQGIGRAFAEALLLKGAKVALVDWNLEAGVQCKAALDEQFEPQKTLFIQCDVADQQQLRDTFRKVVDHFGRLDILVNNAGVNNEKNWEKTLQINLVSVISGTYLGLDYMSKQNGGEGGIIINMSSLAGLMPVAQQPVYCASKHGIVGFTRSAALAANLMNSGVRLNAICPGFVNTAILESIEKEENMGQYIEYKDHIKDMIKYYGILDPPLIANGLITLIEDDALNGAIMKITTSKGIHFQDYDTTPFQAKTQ
- protocol.text: 15-PGDH enzyme inhibition test
- Format: biochemical
- condition.details: 4 nM recombinant human 15-PGDH, 30 μM PGE2, 1 mM NAD+, 60 minutes after starting the reaction; read-out: IC50 Value
pIC50: −log10 of the molar value.
pIC50 listing for selected compounds.

compound	pIC50
CC(C)(C)OC(=O)c1ccc(N2CCOc3cc(C(=O)N4CCC[C@@H](F)C4)cnc32)cc1	7.00 to 8.00

compound Cn1nc2cc(N3CCCc4cc(SC5CCCCC5)cnc43)ccn2c1=O , pIC50 observed: 7.00 to 8.00

compound CCN1Cc2cc(N3CCCc4cc(C(=O)N5CCC[C@@H](CF)C5)cnc43)ccc2C1=O , pIC50 observed: > 8.00

compound Cn1nc2cc(N3CCOc4cc(C(=O)N5CCC(C(F)(F)F)CC5)cnc43)ccn2c1=O , pIC50 observed: > 8.00

compound O=C(O)c1ccc(N2CCOc3cc(C(=O)N4CCCCC4)cnc32)cn1 , pIC50 observed: > 8.00

###

pIC50 listing for selected compounds.
- experimental.target: recombinant human 15-PGDH (Homo sapiens, UniProt P15428)
- Construct: purchased R&D Systems
- Sequence (P15428 1-266): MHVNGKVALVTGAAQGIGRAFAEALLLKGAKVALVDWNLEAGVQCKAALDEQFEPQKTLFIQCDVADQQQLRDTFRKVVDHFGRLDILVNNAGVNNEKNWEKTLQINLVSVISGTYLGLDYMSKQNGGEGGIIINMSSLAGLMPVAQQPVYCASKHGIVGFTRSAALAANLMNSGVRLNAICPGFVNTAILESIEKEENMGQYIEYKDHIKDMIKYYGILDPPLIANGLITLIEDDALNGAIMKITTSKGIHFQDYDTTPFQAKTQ
- protocol.text: 15-PGDH enzyme inhibition test
- Type: biochemical
- condition.details: 4 nM recombinant human 15-PGDH, 30 μM PGE2, 1 mM NAD+, 60 minutes after starting the reaction; read-out: IC50 Value
pIC50: −log10 of the molar value.

For orientation, consider the following solved cases.
smi	experimental.target	pIC50
Cn1nc2cc(N3CCOCc4cc(C(=O)N5CCCCC5)cnc43)ccn2c1=O	recombinant human 15-PGDH (Homo sapiens, UniProt P15428)	7.00 to 8.00
O=C(c1cnc2c(c1)CCCN2c1ccccc1)N1CCCCC1	recombinant human 15-PGDH (Homo sapiens, UniProt P15428)	7.00 to 8.00
NC(=O)c1ccc(N2CCCc3cc(C(=O)N4CCCCC4)cnc32)cc1	recombinant human 15-PGDH (Homo sapiens, UniProt P15428)	> 8.00

Form field pIC50 for item O=C(O)c1ccc(N2CCOc3cc(C(=O)N4CCCC(F)(F)C4)cnc32)cc1 on recombinant human 15-PGDH (Homo sapiens, UniProt P15428): > 8.00

Form field pIC50 for item Cn1ncc2cc(N3CCCc4cc(C(=O)N5CCCCC5)cnc43)cnc2c1=O on recombinant human 15-PGDH (Homo sapiens, UniProt P15428): > 8.00

Form field pIC50 for item CC1CCN(C(=O)c2cnc3c(c2)OCCN3c2ccn3c(=O)n(C)nc3c2)CC1 on recombinant human 15-PGDH (Homo sapiens, UniProt P15428): > 8.00

Form field pIC50 for item CN1Cc2cc(N3CCOc4cc(C(=O)N5CCc6ccccc6C5)cnc43)ccc2C1=O on recombinant human 15-PGDH (Homo sapiens, UniProt P15428): > 8.00

Form field pIC50 for item CCN1Cc2cc(N3CCCc4cc(C(=O)N5CCN(C)CC5)cnc43)ccc2C1=O on recombinant human 15-PGDH (Homo sapiens, UniProt P15428): > 8.00

Form field pIC50 for item Cn1nc2cc(N3CCNc4cc(C(=O)N5CCC(F)(F)CC5)cnc43)ccn2c1=O on recombinant human 15-PGDH (Homo sapiens, UniProt P15428): > 8.00

Form field pIC50 for item CCN1Cc2cc(N3CCCc4cc(C(=O)N5CCCCCC5)cnc43)ccc2C1=O on recombinant human 15-PGDH (Homo sapiens, UniProt P15428): > 8.00

Form field pIC50 for item CCOCCN1Cc2cc(N3CCCc4cc(C(=O)N5CCCCC5)cnc43)ncc2C1=O on recombinant human 15-PGDH (Homo sapiens, UniProt P15428): 7.00 to 8.00

Form field pIC50 for item CCN1Cc2cc(N3CCCc4cc(C(=O)N5CCC[C@H](CF)C5)cnc43)ccc2C1=O on recombinant human 15-PGDH (Homo sapiens, UniProt P15428): > 8.00

Form field pIC50 for item CNC(=O)c1ccc(N2CCCc3cc(C(=O)N4CCCCC4)cnc32)cc1C on recombinant human 15-PGDH (Homo sapiens, UniProt P15428): 7.00 to 8.00

Form field pIC50 for item Cn1nc2cc(N3CCCc4cc(C(=O)N5CCC[C@@H](C(F)F)C5)cnc43)ccn2c1=O on recombinant human 15-PGDH (Homo sapiens, UniProt P15428): > 8.00

Form field pIC50 for item CCOCn1nc2cc(N3CCCc4cc(C(=O)N5CCC(F)(F)CC5)cnc43)ccn2c1=O on recombinant human 15-PGDH (Homo sapiens, UniProt P15428): > 8.00

###

- experimental.target: recombinant human 15-PGDH (Homo sapiens)
- Construct: purchased R&D Systems
- Sequence (P15428 1-266): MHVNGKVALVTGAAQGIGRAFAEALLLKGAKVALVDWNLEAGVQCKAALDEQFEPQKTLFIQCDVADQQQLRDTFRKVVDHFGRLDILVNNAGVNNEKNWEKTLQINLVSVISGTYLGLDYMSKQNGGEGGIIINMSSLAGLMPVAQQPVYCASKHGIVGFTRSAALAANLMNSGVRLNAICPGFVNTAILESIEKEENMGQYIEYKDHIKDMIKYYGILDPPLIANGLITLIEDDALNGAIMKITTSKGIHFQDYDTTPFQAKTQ
- protocol.text: 15-PGDH enzyme inhibition test
- Assay type: biochemical
- condition.details: 4 nM recombinant human 15-PGDH, 30 μM PGE2, 1 mM NAD+, 60 minutes after starting the reaction; read-out: IC50 Value
pIC50: −log10 of the molar value. Where a name gives a salt, the structure may show the parent alone.
pIC50 listing for selected compounds.

compound CCOCCn1nc2cc(N3CCOc4cc(C(=O)N5CCCCC5)cnc43)ccn2c1=O [Example 1-269] , pIC50 observed: > 8.00

compound Cn1nc2cc(N3CCOc4cc(C(=O)N5CCC(C#N)CC5)cnc43)ccn2c1=O [Example 8-183] , pIC50 observed: 7.00 to 8.00

compound CC(C)(O)c1ccc(N2CCOc3cc(C(=O)N4CCCCC4)ccc32)cc1 [Example 10-1] , pIC50 observed: > 8.00

compound CNC1CCCN(C(=O)c2cnc3c(c2)OCCN3c2ccn3c(=O)n(C)nc3c2)C1 (centres unmarked) [Example 32-1, Trifluoroacetate] , pIC50 observed: < 7.00

compound Cn1nc2cc(N3CCCc4cc(C(=O)N5CCCCCC5)cnc43)ccn2c1=O [Example 8-124] , pIC50 observed: > 8.00

###

- experimental.target: recombinant human 15-PGDH (Homo sapiens, UniProt P15428)
- Construct: purchased R&D Systems
- Sequence (P15428 1-266): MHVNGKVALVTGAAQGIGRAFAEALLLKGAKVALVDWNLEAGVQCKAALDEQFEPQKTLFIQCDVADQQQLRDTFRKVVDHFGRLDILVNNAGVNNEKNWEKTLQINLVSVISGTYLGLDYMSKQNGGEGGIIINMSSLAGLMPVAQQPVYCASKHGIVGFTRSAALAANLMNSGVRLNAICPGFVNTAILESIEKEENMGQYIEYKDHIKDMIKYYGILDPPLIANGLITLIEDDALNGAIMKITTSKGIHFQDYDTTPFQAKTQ
- protocol.text: 15-PGDH enzyme inhibition test
- Type: biochemical
- condition.details: 4 nM recombinant human 15-PGDH, 30 μM PGE2, 1 mM NAD+, 60 minutes after starting the reaction; read-out: IC50 Value
pIC50: −log10 of the molar value.
measured.attribute: pIC50

smi	pIC50
O=C(c1cnc2c(c1)OCCN2c1ccn2c(=O)n(C3CC3)nc2c1)N1CCCCC1	> 8.00
COc1cc(N2CCOc3cc(C(=O)N4CCCCC4)cnc32)cc2nn(C)c(=O)n12	7.00 to 8.00
Cn1nc2cc(N3CCOc4cc(C(=O)N5CCC(Cl)CC5)cnc43)ccn2c1=O	> 8.00
Cn1nc2cc(N3CCOc4cc(C(=O)N5CCC6(CC5)CC6)cnc43)ccn2c1=O	> 8.00

# next compound below
compound CC(C)(C(=O)O)c1ccc(N2CCOc3cc(C(=O)N4CCCCC4)cnc32)cc1 , pIC50 observed: < 7.00
